The values you see were collected from the Human Domainome abundance scans (Beltran et al. 2025).

B1: Double-stranded RNA-binding protein Staufen homolog 1, residues 183 to 249; numbered along this chain, O95793 (parent)
chain: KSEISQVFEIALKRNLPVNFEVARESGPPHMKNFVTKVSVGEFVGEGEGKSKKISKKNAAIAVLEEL

Variants of: B1
Assay Explanation: abundance fitness (aPCA) (normalised: wild type 0, dead -1); higher = more abundant; growth selection in yeast, the domain comes from the species named
Reported Conditions: Homo sapiens
Outcome: 1.0 for abundance fitness of at least -0.5; 0.0 for anything lower.

Worked examples follow.
Lookup: Would you say S26F shows abundance fitness at minimum -0.5?
Found: 1.0

Lookup: // repeat for R24Q and report
Found: 1.0

Lookup: Please answer likewise for K13S
Found: 1.0

Turning now to a further variant:
Lookup: Is it the case that A59E has abundance fitness reaching or exceeding -0.5?
Found: 0.0
